Target: Inhibitor of nuclear factor kappa-B kinase subunit beta (Homo sapiens) (UniProt O14920);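 note: values are mean percent inhibition of IKKB, part of the GSK PKIS screening data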
Sequence (whole entry): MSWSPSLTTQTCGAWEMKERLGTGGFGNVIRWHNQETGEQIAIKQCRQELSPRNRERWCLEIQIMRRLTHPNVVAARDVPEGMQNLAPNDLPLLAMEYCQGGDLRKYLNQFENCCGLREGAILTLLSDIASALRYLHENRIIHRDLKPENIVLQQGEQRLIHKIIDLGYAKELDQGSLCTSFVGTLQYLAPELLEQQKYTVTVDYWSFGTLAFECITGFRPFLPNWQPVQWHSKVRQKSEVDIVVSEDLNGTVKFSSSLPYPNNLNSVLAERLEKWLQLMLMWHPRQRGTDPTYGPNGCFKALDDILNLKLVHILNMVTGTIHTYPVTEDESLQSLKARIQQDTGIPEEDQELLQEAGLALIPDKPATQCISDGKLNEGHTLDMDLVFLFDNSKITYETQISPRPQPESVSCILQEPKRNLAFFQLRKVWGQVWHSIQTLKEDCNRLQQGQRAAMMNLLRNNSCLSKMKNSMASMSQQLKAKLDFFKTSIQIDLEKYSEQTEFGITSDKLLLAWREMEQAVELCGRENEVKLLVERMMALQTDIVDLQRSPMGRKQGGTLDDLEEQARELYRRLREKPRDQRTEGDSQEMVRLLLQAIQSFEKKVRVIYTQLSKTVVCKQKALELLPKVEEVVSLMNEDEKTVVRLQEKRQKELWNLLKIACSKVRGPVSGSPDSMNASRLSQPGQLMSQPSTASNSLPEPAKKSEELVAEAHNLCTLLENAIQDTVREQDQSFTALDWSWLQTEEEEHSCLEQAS
Conditions: at 0.1 µM

{"smiles-string": "COc1ccc2c(-c3ccnc(Nc4cccc(OC(F)(F)F)c4)n3)cnn2n1", "inhibition, %": 3.15}
{"smiles-string": "COc1cc(Nc2nccc(Nc3ccc4c(C)n[nH]c4c3)n2)cc(OC)c1OC", "inhibition, %": 3.27}
{"smiles-string": "CC(=O)Nc1cccc(C#Cc2cncnc2Nc2ccc(OCc3cccc(F)c3)c(Cl)c2)c1", "inhibition, %": 2.6}

###

Parameter: inhibition. Scope: all listed entries.
biological target: MAP kinase-activated protein kinase 3 (Homo sapiens) (UniProt Q16644); conditions: at 1 µM
Sequence (Q16644 whole entry, looked up): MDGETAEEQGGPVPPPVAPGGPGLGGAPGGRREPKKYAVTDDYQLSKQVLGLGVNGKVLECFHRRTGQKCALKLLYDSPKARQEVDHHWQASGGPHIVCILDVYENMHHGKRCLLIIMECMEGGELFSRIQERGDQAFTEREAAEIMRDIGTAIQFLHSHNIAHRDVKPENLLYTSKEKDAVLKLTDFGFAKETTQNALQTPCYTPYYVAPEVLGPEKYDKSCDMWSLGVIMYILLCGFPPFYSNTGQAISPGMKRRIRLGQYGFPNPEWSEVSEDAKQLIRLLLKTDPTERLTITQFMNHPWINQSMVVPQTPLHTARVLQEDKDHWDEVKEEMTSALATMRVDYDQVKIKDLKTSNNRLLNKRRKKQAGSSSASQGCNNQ
Description: GSK_PKIS: MAPKAPK3 mean inhibition at 1 uM [Nanosyn]
test-readout: inhibition

{"smiles-string": "COC(=O)Nc1nc2ccc(S(=O)(=O)c3ccc(NC(=O)Nc4cc(C(F)(F)F)ccc4F)cc3)cc2[nH]1", "study-target": "MAP kinase-activated protein kinase 3 (Homo sapiens) (UniProt Q16644)", "measurement": "3.35%"}
{"smiles-string": "NS(=O)(=O)c1ccc(Nc2ncc(-c3ccccc3)o2)cc1", "study-target": "MAP kinase-activated protein kinase 3 (Homo sapiens) (UniProt Q16644)", "measurement": "2.39%"}
{"smiles-string": "Fc1ccc(-c2cc(-c3c[nH]nc3-c3ccccn3)ccn2)cc1", "study-target": "MAP kinase-activated protein kinase 3 (Homo sapiens) (UniProt Q16644)", "measurement": "18.4%"}
{"smiles-string": "c1ccc(COc2ccc(Nc3ncnc4ccc(-c5ccco5)cc34)cc2)cc1", "study-target": "MAP kinase-activated protein kinase 3 (Homo sapiens) (UniProt Q16644)", "measurement": "-0.28%"}
{"smiles-string": "CCc1nn2ncccc2c1-c1ccnc(NC2CC2)n1", "study-target": "MAP kinase-activated protein kinase 3 (Homo sapiens) (UniProt Q16644)", "measurement": "2.3%"}
{"smiles-string": "CCn1c(-c2nonc2N)nc2cnc(Oc3cccc(NC(=O)c4ccc(N(C)C)cc4)c3)cc21", "study-target": "MAP kinase-activated protein kinase 3 (Homo sapiens) (UniProt Q16644)", "measurement": "2.85%"}
{"smiles-string": "Nc1nc(-c2ccc(F)cc2)c(-c2ccc3ncccc3n2)s1", "study-target": "MAP kinase-activated protein kinase 3 (Homo sapiens) (UniProt Q16644)", "measurement": "24.6%"}
{"smiles-string": "NS(=O)(=O)c1ccc(N/N=C2\\C(=O)Nc3ccc4ncccc4c32)cc1", "study-target": "MAP kinase-activated protein kinase 3 (Homo sapiens) (UniProt Q16644)", "measurement": "3.84%"}
{"smiles-string": "CN(C)CCOc1ccc(-c2nc(-c3ccncc3)c(-c3ccc4c(c3)CC/C4=N\\O)[nH]2)cc1", "study-target": "MAP kinase-activated protein kinase 3 (Homo sapiens) (UniProt Q16644)", "measurement": "4.19%"}
{"smiles-string": "CC(C)(CO)CNC(=O)c1ccc2c(c1)/C(=N/Nc1ccc(S(N)(=O)=O)cc1)C(=O)N2", "study-target": "MAP kinase-activated protein kinase 3 (Homo sapiens) (UniProt Q16644)", "measurement": "2.07%"}
{"smiles-string": "N#Cc1c(NC(=O)CN2CCOCC2)sc2c1CCCC2", "study-target": "MAP kinase-activated protein kinase 3 (Homo sapiens) (UniProt Q16644)", "measurement": "5.44%"}
{"smiles-string": "COc1cc(/C=N/Nc2ncnc3[nH]ncc23)ccc1O", "study-target": "MAP kinase-activated protein kinase 3 (Homo sapiens) (UniProt Q16644)", "measurement": "4%"}
{"smiles-string": "COc1ccc2[nH]c3c4[nH]c5ccc(OC)cc5c4c4c(c3c2c1)C(=O)NC4=O", "study-target": "MAP kinase-activated protein kinase 3 (Homo sapiens) (UniProt Q16644)", "measurement": "6.04%"}
{"smiles-string": "CCN1CCC(CC(=O)Nc2n[nH]c3nnc(-c4cccc(F)c4F)cc23)CC1", "study-target": "MAP kinase-activated protein kinase 3 (Homo sapiens) (UniProt Q16644)", "measurement": "0.62%"}
{"smiles-string": "CCOc1ccc2c(-c3ccnc(Nc4cccc(C(F)(F)F)c4)n3)cnn2n1", "study-target": "MAP kinase-activated protein kinase 3 (Homo sapiens) (UniProt Q16644)", "measurement": "1.86%"}
{"smiles-string": "Nc1nc(-c2cccc(Cl)c2)c(-c2ccc3ncccc3n2)s1", "study-target": "MAP kinase-activated protein kinase 3 (Homo sapiens) (UniProt Q16644)", "measurement": "23.9%"}
{"smiles-string": "CNC(=O)c1cccc(C#Cc2cncnc2Nc2ccc(OCc3cccc(F)c3)c(Cl)c2)c1", "study-target": "MAP kinase-activated protein kinase 3 (Homo sapiens) (UniProt Q16644)", "measurement": "1.66%"}
